Sourced from patent US20090048229A1

Listed below: inhibition at 10 µM values for each entry.
# assayed.system: human recombinant acetylcholinesterase (Homo sapiens)
# Construct: purchased Sigma Chemical Co (St. Louis, Mo.) C1682
# Sequence (P22303 32-614): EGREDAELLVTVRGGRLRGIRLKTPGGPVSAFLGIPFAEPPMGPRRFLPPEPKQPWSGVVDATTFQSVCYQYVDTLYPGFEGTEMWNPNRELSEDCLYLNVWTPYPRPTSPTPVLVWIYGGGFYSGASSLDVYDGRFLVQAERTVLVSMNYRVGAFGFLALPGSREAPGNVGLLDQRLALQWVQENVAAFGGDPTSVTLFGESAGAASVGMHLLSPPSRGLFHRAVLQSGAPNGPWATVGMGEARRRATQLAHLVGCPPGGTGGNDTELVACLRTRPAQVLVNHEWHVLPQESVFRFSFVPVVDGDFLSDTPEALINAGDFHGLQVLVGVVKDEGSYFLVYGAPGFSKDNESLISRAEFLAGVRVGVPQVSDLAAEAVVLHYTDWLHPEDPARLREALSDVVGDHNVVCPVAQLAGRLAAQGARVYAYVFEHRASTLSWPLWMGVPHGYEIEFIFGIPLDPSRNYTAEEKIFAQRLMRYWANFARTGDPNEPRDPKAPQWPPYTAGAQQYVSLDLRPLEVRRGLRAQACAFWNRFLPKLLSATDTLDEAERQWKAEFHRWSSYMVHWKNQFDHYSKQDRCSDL
# protocol.details: biochemical
# measurement.context: read-out: Inhibition of AChE (%) 10 μM
quantity: inhibition at 10 µM (%)

{"molecule": "C[C@@H](Cc1ccccc1)NC(=O)Oc1ccc2c(c1)[C@]1(C)CCN(C)[C@@H]1N2C [Compound 14, Physo-d-amphetamine]", "quantitative.readout": 94}
{"molecule": "C[C@H](Cc1ccccc1)N(C)C(=O)Oc1cccc([C@H](C)N(C)C)c1 [Compound 7, S-riva-l-methamphetamine]", "quantitative.readout": 79}
{"molecule": "C[C@H](Cc1ccccc1)NC(=O)Oc1cccc([C@H](C)N(C)C)c1 [Compound 9, S-riva-l-amphetamine]", "quantitative.readout": 79}
{"molecule": "C[C@@H](c1cccc(OC(=O)N(C)[C@@H](C)Cc2ccccc2)c1)N(C)C [Compound 13, S-riva-d-methamphetamine]", "quantitative.readout": 97}
{"molecule": "COc1ccccc1CC(C)N(C)C(=O)Oc1cccc([C@H](C)N(C)C)c1 (stereo partly drawn) [Compound 15, S-riva-methoxyphenamine]", "quantitative.readout": 95}
{"molecule": "C[C@@H](Cc1ccccc1)NC(=O)Oc1cccc([C@H](C)N(C)C)c1 [Compound 20, S-riva-d-amphetamine]", "quantitative.readout": 76}
